Target: T1, Carboxypeptidase B from porcine pancreas (porcine, UniProt P09955 111-416)
T1 construct: carboxypeptidase B from porcine pancreas; also called pCPB; porcine CPB; source: bought: Sigma-Aldrich (from porcine pancreas)
T1 sequence (looked up): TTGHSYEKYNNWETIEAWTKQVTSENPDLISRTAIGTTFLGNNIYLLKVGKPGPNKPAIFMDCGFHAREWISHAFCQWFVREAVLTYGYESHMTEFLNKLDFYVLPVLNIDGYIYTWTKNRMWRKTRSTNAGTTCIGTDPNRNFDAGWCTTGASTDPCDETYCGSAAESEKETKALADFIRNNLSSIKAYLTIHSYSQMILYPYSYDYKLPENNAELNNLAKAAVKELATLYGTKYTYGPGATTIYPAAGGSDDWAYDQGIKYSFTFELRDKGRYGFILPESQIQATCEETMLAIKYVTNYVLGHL
Assay: enzyme inhibition kinetics (Morrison equation for tight-binding inhibitors); 25 °C, equilibrium conditions ([E0]/Ki <= 10), fixed bCPA or pCPB, 0.1 mM N-(4-methoxyphenylazoformyl)-Phe-OH (bCPA) or -Arg-OH (pCPB), Tris-HCl pH 7.5, 0.2 M NaCl; pre-incubated 15 min at RT; absorbance at 340 nm; competitive inhibition assumed
Conditions: both partners purified
No end group written: not given here.
Recorded pKi for the following binders
Note on pKi: it is the negative log10 of concentration, concentration in mol/L.

Binder | pKi
QRDPDPICNKPCKTHDDCSGAWFCQACWNSARTCGPYVG (natural protein, also: N-terminal Gln partly cyclised to pyroglutamate, mature chuPCI (39 amino acids) of the chuPCI precursor, S. tuberosum subsp. andigenum cv; Churqueña; Cloned in pIN-III-OmpA3 with the OmpA3 signal peptide at the N-terminus for secretion; The mass of the purified protein (4326.3 Da) fits the 39 residues without the signal peptide; Three disulfide bonds (Cys8-Cys24, Cys12-Cys27, Cys18-Cys34); also called rchuPCI; recombinant churqueña PCI; source: …) | 7.70

Query binder follows.
Lab note: measured pKi of QQHADPICNKPCKTHDDCSGAWFCQACWNSARTCGPYVG (natural protein, Solanum tuberosum subsp. tuberosum, UniProt P01075 1-39, looked up, also called canonical PCI) [recombinant canonical potato carboxypeptidase inhibitor (PCI)] was 7.97

Source: paper PMC5877539
